This collection of values is drawn from patent US20250295799A1.

target: T1, human glypican-3 (GPC3) (human, UniProt P51654 25-554); experiment: flow cytometry on CHO-S cells transfected with human GPC3;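 also: antibody binding to transiently transfected CHO-S cells after 24 hours at 4 °C, read as geometric mean fluorescence of anti-human AF647 in live cells, fitted against antibody concentration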
T1 construct: Endogenous on JHH-7, JHH-5, HepG2 and NCI-H446 tumour cells, or transiently expressed on CHO-S cells from a pTT5 plasmid; also called hGPC3; huGPC3
value.type: Kd (nM)
Please respond with the number in nM and leave the unit unwritten.

Field: example entries. Status: answers known.
>>> reported_result("H18L6_LC_G34V mAb, v40211 (antibody, human IgG1, kappa, V domains shown, M3-H18L6 chains with the stated light chain point mutation, IgG1/kappa) VH: QVQLVQSGAEVKKPGSSVKVSCKASGYTFTDYEMHWVKQAPGHGLEWIGAIDPETGDTAYNQKFKGKATLTADTSTSTAYMELSSLRSEDTAVYYCTRYFSFAYWGQGTLVTVSS VL: EIVLTQSPATLSLSPGERATISCRSSQSLRHSNVNTYLQWYQQKPGQAPRLLIYKVSNRFSGVPARFSGSGSGTDFTLTISSLEPEDFAVYFCYQSKHVPYTFGGGTKVEIKR")
0.11
>>> reported_result("H18L6_LC_G34D mAb, v40203 (antibody, human IgG1, kappa, V domains shown) VH: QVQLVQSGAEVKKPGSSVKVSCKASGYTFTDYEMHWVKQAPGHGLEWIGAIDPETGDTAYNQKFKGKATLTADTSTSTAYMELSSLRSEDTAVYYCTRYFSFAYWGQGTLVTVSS VL: EIVLTQSPATLSLSPGERATISCRSSQSLRHSNDNTYLQWYQQKPGQAPRLLIYKVSNRFSGVPARFSGSGSGTDFTLTISSLEPEDFAVYFCYQSKHVPYTFGGGTKVEIKR")
0.18
>>> reported_result("H18L6_LC_G34Q mAb, v40208 (antibody, human IgG1, kappa, V domains shown, Full-size IgG1/kappa) VH: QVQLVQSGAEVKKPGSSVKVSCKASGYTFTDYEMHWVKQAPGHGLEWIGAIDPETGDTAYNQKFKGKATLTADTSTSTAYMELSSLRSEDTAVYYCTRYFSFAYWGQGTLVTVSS VL: EIVLTQSPATLSLSPGERATISCRSSQSLRHSNQNTYLQWYQQKPGQAPRLLIYKVSNRFSGVPARFSGSGSGTDFTLTISSLEPEDFAVYFCYQSKHVPYTFGGGTKVEIKR")
0.11

Consider now this further binder.
Exercise: Quick one: Kd for H18L6_LC_N33E mAb, v40213 (antibody, human IgG1, kappa, V domains shown, M3-H18L6 chains with the stated light chain point mutation, IgG1/kappa) VH: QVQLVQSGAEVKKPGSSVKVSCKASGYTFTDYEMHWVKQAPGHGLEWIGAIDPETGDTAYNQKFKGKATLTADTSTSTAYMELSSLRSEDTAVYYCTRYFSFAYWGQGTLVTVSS VL: EIVLTQSPATLSLSPGERATISCRSSQSLRHSEGNTYLQWYQQKPGQAPRLLIYKVSNRFSGVPARFSGSGSGTDFTLTISSLEPEDFAVYFCYQSKHVPYTFGGGTKVEIKR ?
Solution: 0.25
